Each recorded value in this set is attributed to patent US7186722B2.

experiment: logP determination by HPLC (reversed-phase C 18), EEC Directive 79/831 Annex V.A8; assay type: physicochemical; conditions: reversed-phase C18 HPLC column; pH 2.3; HPLC, 0.1% aqueous phosphoric acid/acetonitrile; 43° C.; read-out: log P (pH 2.3)
Recorded endpoint: chromatographic logP

Compound	Recorded endpoint	Experimental value
O=C(c1c(F)cccc1F)C1CC1c1cc(Br)cs1 (centres unmarked)	chromatographic logP	4.14
O=C1CCC(c2ccc(Br)s2)N1 (centres unmarked)	chromatographic logP	1.62
[N-]=[N+]=NC(CCC(=O)c1c(F)cccc1F)c1cc(Br)cs1 (centres unmarked)	chromatographic logP	3
CC(C)(C)OC(=O)N1C(=O)CCC1c1ccc(Br)s1 (centres unmarked)	chromatographic logP	3.03
O=C(CCC(Cl)c1ccc(-c2ccc(OC(F)(F)F)cc2)nc1)c1c(F)cccc1F (centres unmarked)	chromatographic logP	4.88
Fc1cccc(F)c1C1=NC(c2cc3ccccc3s2)CC1 (centres unmarked)	chromatographic logP	3.11
Fc1cccc(F)c1C1=NC(c2sccc2Cl)CC1 (centres unmarked)	chromatographic logP	3.34
[N-]=[N+]=NC(CCC(=O)c1c(F)cccc1F)c1ccc(Cl)nc1 (centres unmarked)	chromatographic logP	3.33
